system name: phosphorylated active hERK2 enzyme (Homo sapiens (Human), UniProt P28482)
Sequence (P28482 whole entry): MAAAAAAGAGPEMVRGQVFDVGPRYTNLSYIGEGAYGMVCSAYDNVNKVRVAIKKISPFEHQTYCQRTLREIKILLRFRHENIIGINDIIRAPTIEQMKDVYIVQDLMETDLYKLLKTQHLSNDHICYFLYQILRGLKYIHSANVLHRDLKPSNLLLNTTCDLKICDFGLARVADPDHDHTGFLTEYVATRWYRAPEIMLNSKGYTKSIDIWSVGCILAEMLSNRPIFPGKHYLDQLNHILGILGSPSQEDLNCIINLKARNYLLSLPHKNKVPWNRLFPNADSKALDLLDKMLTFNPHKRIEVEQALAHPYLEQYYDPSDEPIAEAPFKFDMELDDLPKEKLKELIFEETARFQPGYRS
protocol description: Active Human ERK2 (hERK2) Activity Assay (IMAP-FP)
Format: biochemical
condition: Table 6, 0.5 nM hERK2, 30 μM ATP, 10 point titration, read-out: AERK2 IC50
measure: IC50 (nM)

Known results for compounds:
compound	system name	IC50 / nM
CC(C)(O)[C@@H](NC(=O)Nc1cc2[nH]nc3c2c(n1)CCN3)c1ccccc1 [Example 137]	phosphorylated active hERK2 enzyme (Homo sapiens (Human), UniProt P28482)	1.3
C[C@@H](NC(=O)Nc1cc2[nH]nc(Nc3ccc(C#N)nc3)c2cn1)c1ccccc1 [Example 381]	phosphorylated active hERK2 enzyme (Homo sapiens (Human), UniProt P28482)	367
CC(C)(O)[C@@H](NC(=O)Nc1cc2[nH]nc(N3CCC3)c2cn1)c1ccc(F)cc1 [Example 100]	phosphorylated active hERK2 enzyme (Homo sapiens (Human), UniProt P28482)	1.1
CC(CCl)Nc1n[nH]c2cc(NC(=O)N[C@H](C)c3ccccc3)ncc12 (stereo partly shown) [Example 197]	phosphorylated active hERK2 enzyme (Homo sapiens (Human), UniProt P28482)	3.1
C[C@H](O)[C@@H](NC(=O)Nc1cc2[nH]nc(N3CCc4ncsc4C3)c2cn1)c1ccccc1 [Example 388]	phosphorylated active hERK2 enzyme (Homo sapiens (Human), UniProt P28482)	34.6
C[C@@H](NC(=O)Nc1cc2[nH]nc(NC(=O)C3CCCC3)c2cn1)c1ccccc1 [Example 205]	phosphorylated active hERK2 enzyme (Homo sapiens (Human), UniProt P28482)	1.2
C[C@@H](NC(=O)Nc1cc2[nH]nc(NC(=O)OC3CCOCC3)c2cn1)c1ccc(F)cc1 [Example 399]	phosphorylated active hERK2 enzyme (Homo sapiens (Human), UniProt P28482)	19.7
C[C@@H]1CN(c2n[nH]c3cc(NC(=O)N[C@@H](c4ccccc4)C(C)(C)O)ncc23)C[C@H](C(F)(F)F)O1 [Example 103]	phosphorylated active hERK2 enzyme (Homo sapiens (Human), UniProt P28482)	1.1
C[C@@H](NC(=O)Nc1cc2[nH]nc(NCC(F)(F)F)c2cn1)c1ccccc1 [Example 341]	phosphorylated active hERK2 enzyme (Homo sapiens (Human), UniProt P28482)	2.4
CC(C)NC(=O)Nc1n[nH]c2cc(NC(=O)N[C@H](C)c3ccccc3)ncc12 [Example 218]	phosphorylated active hERK2 enzyme (Homo sapiens (Human), UniProt P28482)	25.1

(a) C[C@@H](NC(=O)Nc1cc2[nH]nc(N3CCC4(CC3)COC4)c2cn1)c1ccccc1 [Example 89]
(b) COC(=O)N[C@H](C(=O)Nc1n[nH]c2cc(NC(=O)N[C@H](C)c3ccc(F)cc3)ncc12)C1CCOCC1 [Example 65]
## Input Please indicate which entry, a or b , has the lower recorded IC50 value. Please indicate the selected item by its label.
## Output a
(a: 9.1 nM, b: 365 nM)

(I) C[C@@H](O)[C@@H](NC(=O)Nc1cc2[nH]nc(N3CCC3)c2cn1)c1ccc(F)cc1 [Example 105]
(II) COC(=O)Nc1n[nH]c2cc(NC(=O)N[C@H](C)c3ccc(Cl)cc3)ncc12 [Example 286]
(III) CNc1n[nH]c2cc(NC(=O)N[C@H](c3ccccc3)[C@@H]3CCCO3)ncc12 [Example 146]
(IV) CCNc1n[nH]c2cc(NC(=O)N[C@H](C)c3cccc(F)c3)ncc12 [Example 243]
## Input Number of compounds to sort: 4. Sort criterion: IC50, ascending. Would you mind listing the labels in the order asked for?
## Output IV, I, II, III

###

system name: phosphorylated active hERK2 enzyme (Homo sapiens (Human), UniProt P28482)
protocol description: Active Human ERK2 (hERK2) Activity Assay (IMAP-FP)
Type: biochemical
condition: Table 6, 0.5 nM hERK2, 30 μM ATP, 10 point titration, read-out: AERK2 IC50
measure: IC50 (nM)

Here's what some known entries look like.
compound	system name	IC50, nM
CCNc1n[nH]c2cc(NC(=O)N[C@@H]3CCC[C@H]3OC)ncc12	phosphorylated active hERK2 enzyme (Homo sapiens (Human), UniProt P28482)	99.3
CC(C)(O)[C@@H](NC(=O)Nc1cc2[nH]nc(NC(=O)OCC(F)F)c2cn1)c1ccc(F)cc1	phosphorylated active hERK2 enzyme (Homo sapiens (Human), UniProt P28482)	1.5

(A) CCOc1ncccc1CNC(=O)Nc1cc2[nH]nc(N)c2cn1
(B) CC(=O)Nc1n[nH]c2cc(NC(=O)N[C@H](C)c3ccccc3)nc(C)c12
(C) CCNc1n[nH]c2cc(NC(=O)N[C@@H]3CCOc4ccccc43)ncc12
## Input Order field: IC50 | Direction: descending (largest first) Show the ranking through the labels, in the order asked for.
## Output B, C, A
(B: 127 nM, C: 52 nM, A: 20.7 nM)

(P) C[C@@H](NC(=O)Nc1cc2[nH]nc(NC(=O)N3CC(C)(O)C3)c2cn1)c1ccccc1
(Q) C[C@@H](O)[C@@H](NC(=O)Nc1cc2[nH]nc(N3CCC(F)(F)CC3)c2cn1)c1ccc(F)cc1
(R) COCC(=O)Nc1n[nH]c2cc(NC(=O)N[C@H](C)c3ccccc3)ncc12
## Input Put the entries in order of IC50, starting with the largest number. Order the labels as requested and give them as your answer.
## Output P, R, Q
(P: 8.6 nM, R: 2.2 nM, Q: 0.9 nM)

###

system name: UniProt P28482
protocol description: Active Human ERK2 (hERK2) Activity Assay (IMAP-FP)
Assay type: biochemical
condition: Table 6, 0.5 nM hERK2, 30 μM ATP, 10 point titration, read-out: AERK2 IC50
measure: IC50 (nM)

Worked examples, 3 compounds total:
compound	system name	value reported
CC(C)(O)[C@@H](NC(=O)Nc1cc2[nH]nc(N)c2cn1)c1ccc(F)cc1 [Example 443]	UniProt P28482	0.7
CC(=O)N(C)c1n[nH]c2cc(NC(=O)N[C@H](C)c3ccccc3)ncc12 [Example 349]	UniProt P28482	484
CNc1n[nH]c2cc(NC(=O)N[C@@H](c3ccccc3)[C@@H]3CCCO3)ncc12 [Example 144]	UniProt P28482	2

(I) CC(CS(C)(=O)=O)Nc1n[nH]c2cc(NC(=O)N[C@H](C)c3ccccc3)ncc12 (some centres unmarked) [Example 192]
(II) CC(C)(O)[C@@H](NC(=O)Nc1cc2[nH]nc(NC(=O)N3CCC(F)(F)C3)c2cn1)c1ccc(F)cc1 [Example 131]
(III) CCNc1n[nH]c2cc(NC(=O)N[C@H](C)c3ccc(Cl)cc3)ncc12 [Example 249]
(IV) C[C@@H](NC(=O)Nc1cc2[nH]nc(NC(=O)N[C@H](C)c3ccc(Cl)c(O)c3)c2cn1)c1ccc(Cl)c(O)c1 [Example 308]
(V) C[C@H](Nc1n[nH]c2cc(NC(=O)N[C@H](C)c3ccccc3)ncc12)c1ccccn1 [Example 86]
## Input Given 5 compounds, produce a descending ranking by IC50. Hello, could you send the labels back in the order asked? Thank you.
## Output IV, I, III, V, II

###

system name: phosphorylated active hERK2 enzyme (Homo sapiens (Human), UniProt P28482)
protocol description: Active Human ERK2 (hERK2) Activity Assay (IMAP-FP)
Type: biochemical
condition: Table 5, 0.5 nM hERK2, 30 μM ATP, 10 point titration, read-out: AERK2 IC50
measure: IC50 (nM)

Some solved cases for reference:
1) CCNc1n[nH]c2c(F)c(NC(=O)N[C@H](C)c3ccccc3)ncc12 3.05
2) CCNc1n[nH]c2cc(NC(=O)N[C@H](C)c3ccccc3)ncc12 1.13

(1) C[C@@H](NC(=O)Nc1cc2[nH]nc(N)c2cn1)c1ccc(F)cc1
(2) C[C@@H](NC(=O)Nc1cc2[nH]nc(NS(=O)(=O)CC3CC3)c2cn1)c1ccccc1
(3) CNc1n[nH]c2cc(NC(=O)N[C@H](C)c3ccc(F)cc3)ncc12
## Input With regard to IC50, arrange the entries in ascending order, please. List the labels in the requested order.
## Output 1, 3, 2

###

system name: phosphorylated active hERK2 enzyme (Homo sapiens (Human), UniProt P28482)
protocol description: Active Human ERK2 (hERK2) Activity Assay (IMAP-FP)
Type: biochemical
condition: Table 5, 0.5 nM hERK2, 30 μM ATP, 10 point titration, read-out: AERK2 IC50
measure: IC50 (nM)

compound	IC50 (nM)
COC[C@@H](NC(=O)Nc1cc2[nH]nc(N3CCN(C)CC3)c2cn1)c1ccccc1 [Example 14]	21.8
COC[C@@H](C)NC(=O)Nc1cc2[nH]nc(N3CCOCC3)c2cn1 [Example 11]	30

(A) CCNc1n[nH]c2c(C)c(NC(=O)N[C@H](C)c3ccccc3)ncc12 [Example 60]
(B) COC[C@@H](NC(=O)Nc1cc2[nH]nc(N3CCOCC3C)c2cn1)c1ccccc1 (some centres unmarked) [Example 27]
## Input For the pair A and B , which member has the lower IC50 number? State the label of the item chosen.
## Output B
(B: 1.2 nM, A: 38.8 nM)

(A) COCCN(C)c1n[nH]c2cc(NC(=O)N[C@H](C)c3ccccc3)ncc12 [Example 10]
(B) C[C@@H](NC(=O)Nc1cc2[nH]nc(NS(=O)(=O)C3CCC3)c2cn1)c1ccccc1 [Example 53]
(C) CCNc1n[nH]c2cc(NC(=O)N[C@H](C)c3ccccc3)nc(C)c12 [Example 38]
## Input Arrange the 3 compounds by rising IC50, starting with the smallest. When ranking, write the labels in the order the request describes.
## Output C, A, B
(C: 13.9 nM, A: 42.1 nM, B: 424 nM)
